Here, each record is paired with measured concentration at 1 h data.
# ASSAY_TEXT: Pharmacokinetic study in plasma samples
# Type: in vivo, mouse
# TEST_PARAMETERS: RAG-2, mouse, plasma, intraperitoneal; 10 mg/kg i.p., 1 h; read-out: plasmatic concentration, Mean

>  <SMILES_RECORD>
COc1cc2nc(-c3ccc(C)o3)cc(NCC3CCN(c4ncc(C(=O)NO)cn4)CC3)c2cc1OC

>  <UOM>
nM

>  <concentration at 1 h>
203

$$$$
>  <SMILES_RECORD>
COc1cc2nc(-c3cc(C)oc3C)cc(NCC3CCN(c4ncc(C(=O)NO)cn4)CC3)c2cc1OC

>  <UOM>
nM

>  <concentration at 1 h>
352

$$$$

----------
# ASSAY_TEXT: Pharmacokinetic study in plasma samples
# Type: in vivo, mouse
# TEST_PARAMETERS: RAG-2, mouse, plasma, ip; 10 mg/kg i.p., mice, NCA, mean

>  <SMILES_RECORD>
COc1cc2nc(-c3cc(C)oc3C)cc(NCC3CCN(c4ncc(C(=O)NO)cn4)CC3)c2cc1OC

>  <AUC(0-t)>
1.69 µM·h

$$$$

----------
# ASSAY_TEXT: Pharmacokinetic study in plasma samples
# Assay type: in vivo, mouse
# TEST_PARAMETERS: RAG-2, mouse, plasma, intraperitoneal; 10 mg/kg i.p., 4 h; read-out: plasmatic concentration, Mean

>  <SMILES_RECORD>
COc1cc2nc(-c3cc(C)oc3C)cc(NCC3CCN(c4ncc(C(=O)NO)cn4)CC3)c2cc1OC

>  <concentration at 4 h / nM>
17.1

$$$$
>  <SMILES_RECORD>
COc1cc2nc(-c3ccc(C)o3)cc(NCC3CCN(c4ncc(C(=O)NO)cn4)CC3)c2cc1OC

>  <concentration at 4 h / nM>
5

$$$$

----------
# Tested on: ML-2
# ASSAY_TEXT: Acetylome analysis (Acetyl-K enrichment, LC-MS/MS)
# Assay type: cell-based, human
# TEST_PARAMETERS: ML-2, 25% GI50, 12 h, Fig. 4G
Here, each record is paired with measured regulated Acetyl-K sites in Histone proteins data.
QUANTITY_MEASURED: regulated Acetyl-K sites in Histone proteins

>  <COMPOUND>
Cc1[nH]c2ccccc2c1CCNCc1ccc(/C=C/C(=O)NO)cc1 [Panobinostat, reference compound]

>  <OBSERVED_MEASUREMENT>
52

$$$$
>  <COMPOUND>
O=C(CCCCCCC(=O)Nc1ccccc1)NO [Vorinostat, reference compound]

>  <OBSERVED_MEASUREMENT>
40

$$$$
>  <COMPOUND>
COc1cc2nc(-c3ccc(C)o3)cc(NCC3CCN(c4ncc(C(=O)NO)cn4)CC3)c2cc1OC

>  <OBSERVED_MEASUREMENT>
58

$$$$
>  <COMPOUND>
COc1cc2nc(-c3cc(C)oc3C)cc(NCC3CCN(c4ncc(C(=O)NO)cn4)CC3)c2cc1OC

>  <OBSERVED_MEASUREMENT>
55

$$$$

----------
# TESTED_ON: DNMT3A/3L (Homo sapiens)
# Sequence (Q9Y6K1 whole entry, looked up): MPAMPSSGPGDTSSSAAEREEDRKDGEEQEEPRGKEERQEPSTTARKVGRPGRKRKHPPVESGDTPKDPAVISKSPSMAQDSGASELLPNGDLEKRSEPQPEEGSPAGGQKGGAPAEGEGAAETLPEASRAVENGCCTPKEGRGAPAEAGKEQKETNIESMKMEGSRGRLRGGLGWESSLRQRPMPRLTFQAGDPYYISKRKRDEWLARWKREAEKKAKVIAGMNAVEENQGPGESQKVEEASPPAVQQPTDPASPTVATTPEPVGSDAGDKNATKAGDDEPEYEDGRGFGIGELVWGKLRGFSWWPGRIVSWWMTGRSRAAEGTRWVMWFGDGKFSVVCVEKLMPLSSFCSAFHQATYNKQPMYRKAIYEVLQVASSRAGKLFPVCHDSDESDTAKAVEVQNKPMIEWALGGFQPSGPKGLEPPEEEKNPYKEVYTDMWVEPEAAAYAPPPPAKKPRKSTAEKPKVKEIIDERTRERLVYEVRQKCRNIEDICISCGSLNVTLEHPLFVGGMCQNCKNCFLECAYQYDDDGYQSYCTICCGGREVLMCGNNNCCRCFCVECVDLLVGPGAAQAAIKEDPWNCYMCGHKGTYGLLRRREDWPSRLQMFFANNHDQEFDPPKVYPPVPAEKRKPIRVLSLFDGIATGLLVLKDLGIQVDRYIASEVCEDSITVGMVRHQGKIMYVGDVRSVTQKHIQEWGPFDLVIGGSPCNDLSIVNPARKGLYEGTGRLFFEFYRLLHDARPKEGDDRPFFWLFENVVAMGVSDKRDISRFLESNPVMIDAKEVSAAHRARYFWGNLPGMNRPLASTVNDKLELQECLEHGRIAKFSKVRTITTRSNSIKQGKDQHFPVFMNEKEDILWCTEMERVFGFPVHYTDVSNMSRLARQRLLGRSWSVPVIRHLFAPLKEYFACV
# Sequence (Q9UJW3 whole entry partner): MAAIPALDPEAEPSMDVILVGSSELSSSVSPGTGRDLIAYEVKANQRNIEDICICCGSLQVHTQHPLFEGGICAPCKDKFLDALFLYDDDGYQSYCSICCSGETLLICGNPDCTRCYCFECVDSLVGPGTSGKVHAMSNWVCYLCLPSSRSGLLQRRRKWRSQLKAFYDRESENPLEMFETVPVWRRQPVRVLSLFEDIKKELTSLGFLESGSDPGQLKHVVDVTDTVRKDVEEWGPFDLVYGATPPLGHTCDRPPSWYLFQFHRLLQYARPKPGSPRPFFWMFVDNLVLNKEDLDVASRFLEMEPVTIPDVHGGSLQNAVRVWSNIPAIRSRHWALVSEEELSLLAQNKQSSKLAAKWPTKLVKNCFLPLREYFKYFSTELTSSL
# ASSAY_TEXT: Epigenetic panel (BPS Bioscience)
# Description: […]
QUANTITY_MEASURED: IC50 (nM)

>  <SMILES_RECORD>
COc1cc2nc(-c3ccc(C)o3)cc(NCC3CCN(c4ncc(C(=O)NO)cn4)CC3)c2cc1OC

>  <OBSERVED_MEASUREMENT>
1800

$$$$
